- System: Lolium perenne
- testSummary: Post-emergence herbicidal activity against Lolium perenne (perennial ryegrass) at 500 g a.i./ha after 21 days
- Type: functional
measuredProperty: Activity
# include the unit after the value

A selection of reference data follows.
- compound: "Cc1cc(C)c(-c2c(OC(=O)C(C)(C)C)n3n(c2=O)CCCCC3)c(C)c1"
  Activity: "80%"
- compound: "Cc1cc(C)c(C2C(=O)N3CC[S+]([O-])CCN3C2=O)c(C)c1"
  Activity: "40%"
- compound: "Cc1cc(C)c(-c2c(OC(=O)C(C)(C)C)n3n(c2=O)CCSCC3)c(C)c1"
  Activity: "40%"
- compound: "Cc1cc(C)c(C2C(=O)N3CCS(=O)(=O)CCN3C2=O)c(C)c1"
  Activity: "20%"
- compound: "Cc1cc(C)c(C2C(=O)N3CCN(C)CCN3C2=O)c(C)c1"
  Activity: "10%"
- compound: "Cc1cc(C)c(-c2c(OC(=O)C(C)(C)C)n3n(c2=O)CC[S+]([O-])CC3)c(C)c1 (stereo unspecified)"
  Activity: "20%"

So what's the measured Activity for this one? Cc1cc(C)c(C2C(=O)N3CCCCCN3C2=O)c(C)c1
60%

// returns reported Activity for input Cc1cc(C)c(-c2c(OC(=O)C(C)(C)C)n3n(c2=O)CCS(=O)(=O)CC3)c(C)c1
10%

Quick one: Activity of Cc1cc(C)c(C2C(=O)N3CCSCCN3C2=O)c(C)c1 ?
50%

Please give the measured Activity for this compound: Cc1cc(C)c(-c2c(OC(=O)C(C)(C)C)n3n(c2=O)CCOCC3)c(C)c1
90%

Which measured Activity value corresponds to Cc1cc(C)c(C2C(=O)N3CCOCCN3C2=O)c(C)c1 ?
90%

Attribution: ChEMBL document CHEMBL3045393
